src = the supplement of paper PMC10567573

B1: ELF3 (parent)
chain: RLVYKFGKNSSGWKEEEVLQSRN

variants of: B1; experiment: protein stability index of a GFP-peptide fusion (GPS, HEK-293T) (PSI 1-6); higher = more stable; settings: c terminus: native;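 also: lentivirally expressed fusions sorted by FACS into six bins by GFP to DsRed ratio, PSI derived from sequencing read proportions per bin multiplied by bin number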
Measurement type: protein stability index

Here is how some variants turned out for protein stability index.
R1G; 2.87
K14V; 2.25

[ask] Identify the reported protein stability index for the following entry. W13E
[reply] 4.85

[ask] Identify the reported protein stability index for the following entry. K5R
[reply] 1.05

[ask] Identify the reported protein stability index for the following entry. L2G
[reply] 2.78

[ask] Identify the reported protein stability index for the following entry. S10N
[reply] 2.1

[ask] Identify the reported protein stability index for the following entry. G12D
[reply] 3.19

[ask] Identify the reported protein stability index for the following entry. W13N
[reply] 3.67

[ask] Identify the reported protein stability index for the following entry. E16H
[reply] 1.25
